System: HEK-293T
ASSAY COMMENT: Incucyte cell viability with HEK293T; further: filed as whole numbers so only -1 and 0 and 1 occur
Format: toxicity, cell-based
COND: human, 12 h, 10 µM, compound concentration 10 uM, replicate number 1, timepoint 12 hours
MEASURED PARAMETER: Growth Rate
I only need the number, thanks.

# annotated cases, reported Growth Rate shown
OCCn1cc(-c2cnc3nnn(Cc4ccc5ncccc5c4)c3n2)cn1; 1
COCC(=O)NC/C=C/c1ccc2ncnc(Nc3ccc(Oc4ccc(C)nc4)c(C)c3)c2c1; 0
CC[C@@H]1CN2C(=O)N(C)c3nc(-c4ccccc4)[nH]c3C2=N1.Cl; 1
O=C(Nc1ccc(-c2ccnc(Nc3ccc(N4CCOCC4)cc3)n2)cc1)[C@@H]1CCCN1; 0
CS(=O)(=O)NCC[C@H](NC(=O)c1cncc2c1cnn2-c1ccc(F)cc1)c1ccnc(S(C)(=O)=O)c1; 1
CCCS(=O)(=O)Nc1ccc(F)c(C(=O)c2c[nH]c3ncc(Cl)cc23)c1F; 0
O=C1N/C(=N/c2ccccc2F)S/C1=C\c1ccc(C(=O)O)cc1; 1
Cc1cn(-c2cc(NC(=O)c3ccc(C)c(Nc4nccc(-c5cccnc5)n4)c3)cc(C(F)(F)F)c2)cn1; 1
Cc1ccc2nc(NCCN)c3ncc(C)n3c2c1.O=C(O)C(F)(F)F.O=C(O)C(F)(F)F; 0
c1ccc(Nc2nc3c(s2)CCCc2[nH]ncc2-3)nc1; 0

Now let's try a different one.
Incoming: // Growth Rate lookup, key: Cc1nc(-c2ccc(C(F)(F)F)cc2)sc1COc1ccc([C@H](CC(=O)O)c2ccon2)cc1
Outgoing: 0
